We begin with a simple list: items and their reported Relative liver weight, relative to Control (100).
Tested on: serum and liver lipid levels in rats
experiment.notes: Serum and liver lipid levels and relative liver weight in rats (25 mg/kg, 10 days)
Format: in vivo, male Wistar rats
conditions: Table 4; in parentheses; Control = (100)
Just the number.

In the examples that follow, each entry is paired with its recorded Relative liver weight, relative to Control (100).
| compound | endpoint.value |
| --- | --- |
| O=C(OCCCCCCc1ccc(OCc2ccc(Cl)cc2)cc1)c1cccnc1 | 111 |
| O=C(OCCCc1ccc(OCc2ccc(Cl)cc2)cc1)c1cccnc1 | 100 |
| O=C(OCc1ccc(OCc2ccc(Cl)cc2)cc1)c1cccnc1 [KCD-232, 4-(4-chlorobenzyloxy)benzyl nicotinate, reference compound] | 105 |
| O=C(OCc1ccc(OCCCCCCc2ccc(Cl)cc2)cc1)c1cccnc1 | 111 |

Please look at the following compound next.
Which Relative liver weight, relative to Control (100) is reported with serum and liver lipid levels in rats for this entry: "O=C(OCc1ccc(OCCCc2ccc(Cl)cc2)cc1)c1cccnc1" ?
109
